assay: Intrinsic clearance in CD1 mouse liver microsomes preincubated for 10 mins under shaking condition followed by NADPH generating system addition and measured up to 60 mins by LC-MS/MS analysis; type: ADME, Microsome; conditions: 1 h, time <=70 min
quantity_measured: CLint

>>> print(df.to_string())
                               smiles_input        observed
0  CS(=O)(=O)O.[2H]C([2H])=CC(=O)Nc1cc(Nc2nccc(-c3cn(C([2H])([2H])[2H])c4ccccc34)n2)c(OC)cc1N(C)CCN(C)C  58.6 µL/min/mg
1  C=CC(=O)Nc1cc(Nc2nccc(-c3cn(C)c4ccccc34)n2)c(OC)cc1N(C)CCN(C)C  62.1 µL/min/mg
